The entries below are paired with their reported mass density.
Reported Conditions: 333.15 K; 45000 kPa; Liquid; Vibrating tube method
Lab book: enter the figure in kg/m3, no units written.

Worked cases, answers included:
# Compound, Value Unit, mass density
records = [
    ("CCCCCCCC[n+]1cccc(C)c1.F[B-](F)(F)F [N-octyl-3-methylpyridinium tetrafluoroborate]", "kg/m3", 1095.48),
    ("CCCC[n+]1ccccc1.O=S(=O)([O-])C(F)(F)F [1-butylpyridinium trifluoromethanesulfonate]", "kg/m3", 1313.93),
    ("CCC[n+]1ccccc1Oc1ccc(Cl)c[n+]1CCOS(=O)(=O)[O-].F[B-](F)(F)F", "kg/m3", 1248.15),
    ("CCCC[n+]1ccccc1.F[B-](F)(F)F [1-butylpyridinium tetrafluoroborate]", "kg/m3", 1210.67),
]

# evaluate next
I am curious: what mass density value has been reported for CCCC[n+]1cccc(C)c1.N#C[N-]C#N [1-butyl-3-methylpyridinium dicyanamide] ?
1045.58

----------
Reported Conditions: 318.15 K; 35000 kPa; Liquid; Vibrating tube method
Metric Name: mass density (kg/m3)
I only need the number, in kg/m3, no unit after it.

Previously resolved entries follow.
# Compound, Value Unit, Observed Measurement
measured = [
    ("CCCC[n+]1ccccc1.O=S(=O)([O-])C(F)(F)F [1-butylpyridinium trifluoromethanesulfonate]", "kg/m3", 1319.52),
    ("CCC[n+]1ccccc1Oc1ccc(Cl)c[n+]1CCOS(=O)(=O)[O-].F[B-](F)(F)F", "kg/m3", 1253.97),
]

For the compound CCCC[n+]1ccccc1.F[B-](F)(F)F [1-butylpyridinium tetrafluoroborate] , what mass density is on record?
1216.03

Any idea what its mass density is? The compound is CCCC[n+]1cccc(C)c1.N#C[N-]C#N [1-butyl-3-methylpyridinium dicyanamide]
1050.75

Would you mind telling me what mass density value was observed for CCCCCCCC[n+]1cccc(C)c1.F[B-](F)(F)F [N-octyl-3-methylpyridinium tetrafluoroborate] ?
1100

----------
Reported Conditions: 288.15 K; 35000 kPa; Liquid; Vibrating tube method
Property: mass density; scope: individual compounds
Numeric only. Scale: kg/m3

So what does the record say about mass density for CCCC[n+]1cccc(C)c1.N#C[N-]C#N [1-butyl-3-methylpyridinium dicyanamide] ?
1068.35

Quick one: mass density of CCCCCCCC[n+]1cccc(C)c1.F[B-](F)(F)F [N-octyl-3-methylpyridinium tetrafluoroborate] ?
1118.71

Fill in the blank: the reported mass density of CCC[n+]1ccccc1Oc1ccc(Cl)c[n+]1CCOS(=O)(=O)[O-].F[B-](F)(F)F is ____.
1275.02

What measured mass density goes with CCCC[n+]1ccccc1.F[B-](F)(F)F [1-butylpyridinium tetrafluoroborate] ?
1236.23

----------
Reported Conditions: 298.15 K; 35000 kPa; Liquid; Vibrating tube method
Items are presented alongside their recorded mass density.
Note: unit kg/m3 is implicit; provide only the numeric part.

Consider the reported mass density for these molecules:
# Molecule, Value Unit, Observed Measurement
data = [
    ("CCCC[n+]1ccccc1.F[B-](F)(F)F [1-butylpyridinium tetrafluoroborate]", "kg/m3", 1229.43),
    ("CCC[n+]1ccccc1Oc1ccc(Cl)c[n+]1CCOS(=O)(=O)[O-].F[B-](F)(F)F", "kg/m3", 1267.9),
    ("CCCCCCCC[n+]1cccc(C)c1.F[B-](F)(F)F [N-octyl-3-methylpyridinium tetrafluoroborate]", "kg/m3", 1112.49),
]

Data request, read-out mass density, for CCCC[n+]1cccc(C)c1.N#C[N-]C#N [1-butyl-3-methylpyridinium dicyanamide]
1062.37

----------
Reported Conditions: 298.15 K; 20000 kPa; Liquid; Vibrating tube method
Reported mass density values are given for each entry in this list.
Reply with just the number (in kg/m3).

A selection of reference data follows.
# Compound, Metric Name, Observed Measurement
data = [
    ("CCCC[n+]1ccccc1.F[B-](F)(F)F [1-butylpyridinium tetrafluoroborate]", "mass density", 1223.33),
    ("CCC[n+]1ccccc1Oc1ccc(Cl)c[n+]1CCOS(=O)(=O)[O-].F[B-](F)(F)F", "mass density", 1262.01),
    ("CCCCCCCC[n+]1cccc(C)c1.F[B-](F)(F)F [N-octyl-3-methylpyridinium tetrafluoroborate]", "mass density", 1105.84),
]

Which mass density reading was recorded for the compound CCCC[n+]1cccc(C)c1.N#C[N-]C#N [1-butyl-3-methylpyridinium dicyanamide] ?
1057.08

----------
Reported Conditions: 318.15 K; 25000 kPa; Liquid; Vibrating tube method
Metric Name: mass density (kg/m3)
Write down the numeric answer in kg/m3 and omit the unit.

Recorded mass density for CCCCCCCC[n+]1cccc(C)c1.F[B-](F)(F)F [N-octyl-3-methylpyridinium tetrafluoroborate] , please?
1095.34

Field request: mass density | item: CCCC[n+]1ccccc1.F[B-](F)(F)F [1-butylpyridinium tetrafluoroborate]
1211.7

Request the reported mass density associated with CCC[n+]1ccccc1Oc1ccc(Cl)c[n+]1CCOS(=O)(=O)[O-].F[B-](F)(F)F
1249.81

Query: mass density; subject: CCCC[n+]1ccccc1.O=S(=O)([O-])C(F)(F)F [1-butylpyridinium trifluoromethanesulfonate]
1314.14

Given CCCC[n+]1cccc(C)c1.N#C[N-]C#N [1-butyl-3-methylpyridinium dicyanamide] , state its recorded mass density.
1046.98

----------
Reported Conditions: 298.15 K; 30000 kPa; Liquid; Vibrating tube method
Metric Name: mass density (kg/m3)
Unit kg/m3 implied. Number only.

Here is how some molecules turned out for mass density.
# Molecule, mass density [kg/m3]
measured = [
    ("CCC[n+]1ccccc1Oc1ccc(Cl)c[n+]1CCOS(=O)(=O)[O-].F[B-](F)(F)F", 1265.98),
    ("CCCC[n+]1cccc(C)c1.N#C[N-]C#N [1-butyl-3-methylpyridinium dicyanamide]", 1060.59),
]

Given the entry CCCC[n+]1ccccc1.F[B-](F)(F)F [1-butylpyridinium tetrafluoroborate] , report its measured mass density.
1227.48

Entry under review: CCCCCCCC[n+]1cccc(C)c1.F[B-](F)(F)F [N-octyl-3-methylpyridinium tetrafluoroborate] . Reported mass density?
1110.33

----------
mass density listing for selected molecules.
Reported Conditions: 333.15 K; 15000 kPa; Liquid; Vibrating tube method
Form entry: value (kg/m3) — number only.

# Molecule, Value Unit, Observed Measurement
measured = [
    ("CCCC[n+]1cccc(C)c1.N#C[N-]C#N [1-butyl-3-methylpyridinium dicyanamide]", "kg/m3", 1034.45),
    ("CCCC[n+]1ccccc1.F[B-](F)(F)F [1-butylpyridinium tetrafluoroborate]", "kg/m3", 1197.4),
    ("CCC[n+]1ccccc1Oc1ccc(Cl)c[n+]1CCOS(=O)(=O)[O-].F[B-](F)(F)F", "kg/m3", 1235.23),
]

Consider the molecule shown here: CCCCCCCC[n+]1cccc(C)c1.F[B-](F)(F)F [N-octyl-3-methylpyridinium tetrafluoroborate] What is its recorded mass density?
1080.9

Find the recorded mass density belonging to CCCC[n+]1ccccc1.O=S(=O)([O-])C(F)(F)F [1-butylpyridinium trifluoromethanesulfonate] and report it.
1297.41

----------
The entries below come with measured mass density values attached.
Reported Conditions: 318.15 K; 20000 kPa; Liquid; Vibrating tube method
Number only, in kg/m3; omit the unit.

Would you please look over these solved cases?
# Compound, Value Unit, mass density
rows = [
    ("CCCC[n+]1ccccc1.F[B-](F)(F)F [1-butylpyridinium tetrafluoroborate]", "kg/m3", 1209.58),
    ("CCCC[n+]1cccc(C)c1.N#C[N-]C#N [1-butyl-3-methylpyridinium dicyanamide]", "kg/m3", 1045.08),
    ("CCCCCCCC[n+]1cccc(C)c1.F[B-](F)(F)F [N-octyl-3-methylpyridinium tetrafluoroborate]", "kg/m3", 1092.87),
    ("CCCC[n+]1ccccc1.O=S(=O)([O-])C(F)(F)F [1-butylpyridinium trifluoromethanesulfonate]", "kg/m3", 1311.4),
]

Could you now look at the following compound, please?
Given the entry CCC[n+]1ccccc1Oc1ccc(Cl)c[n+]1CCOS(=O)(=O)[O-].F[B-](F)(F)F , report its measured mass density.
1247.69

----------
Reported Conditions: 283.15 K; 5000 kPa; Liquid; Vibrating tube method
# maps each entry to its mass density
The reply should be a number in kg/m3, with the unit left off.

I'd like to know its mass density. The compound in question is CCCC[n+]1ccccc1.F[B-](F)(F)F [1-butylpyridinium tetrafluoroborate]
1227.5

Reported mass density, compound CCC[n+]1ccccc1Oc1ccc(Cl)c[n+]1CCOS(=O)(=O)[O-].F[B-](F)(F)F : ____
1266.85

Sample CCCC[n+]1cccc(C)c1.N#C[N-]C#N [1-butyl-3-methylpyridinium dicyanamide] — what was its mass density?
1060.66

Find the recorded mass density belonging to CCCCCCCC[n+]1cccc(C)c1.F[B-](F)(F)F [N-octyl-3-methylpyridinium tetrafluoroborate] and report it.
1108.56
